# Test target: Human immunodeficiency virus type 1 reverse transcriptase (Human immunodeficiency virus 1, UniProt Q72547, K103N)
# Run description: Inhibition of HIV NL43 recombinant reverse transcriptase K103N mutant by scintillation proximity assay
Test readout: pIC50
Keep in mind that pIC50 stands for -log10 of concentration in molar terms.

stdin: // pIC50 lookup, key: "O=C(NCc1ccccc1O)c1[nH]c2ccc(Br)cc2c1S(=O)(=O)N1CCCC1"
stdout: 7.51

stdin: Look up pIC50: "O=C(NCc1c(F)cccc1Cl)c1[nH]c2ccc(Br)cc2c1S(=O)(=O)N1CCCC1"
stdout: 7.70

stdin: Sample "COc1ccc2nc(-c3[nH]c4ccc(Br)cc4c3S(=O)(=O)N3CCCC3)[nH]c2c1" — what was its pIC50?
stdout: 6.82

----------
# Test target: Human immunodeficiency virus type 1 reverse transcriptase (Human immunodeficiency virus 1, UniProt Q72547, Y181C)
# Run description: Inhibition of HIV HXB2 recombinant reverse transcriptase Y181C mutant by scintillation proximity assay
Test readout: IC50 (nM)
// return numeric value only (unit: nM, not printed)

stdin: Item under review: "NC(=O)c1[nH]c2ccc(Cl)cc2c1S(=O)(=O)c1ccccc1" . Reported IC50?
stdout: 71

stdin: Dear colleague, I am looking for the recorded IC50 of the following compound: "O=C(NCc1ccncc1)c1[nH]c2ccc(Br)cc2c1S(=O)(=O)N1CCCC1"
stdout: 6.3

stdin: // lookup IC50 for "COc1ccc2nc(-c3[nH]c4ccc(Br)cc4c3S(=O)(=O)N3CCCC3)[nH]c2c1"
stdout: 5100

stdin: I would be grateful if you could share the reported IC50 for "O=C(NCc1ccn[nH]1)c1[nH]c2ccc(Br)cc2c1S(=O)(=O)N1CCCC1" .
stdout: 829

stdin: Recorded IC50 of "O=C(NCc1c(F)cccc1Cl)c1[nH]c2ccc(Br)cc2c1S(=O)(=O)N1CCCC1" , please.
stdout: 16

stdin: Dear colleague, I am looking for the recorded IC50 of the following compound: "O=S(=O)(c1c(-c2nc3cccnc3[nH]2)[nH]c2ccc(Br)cc12)N1CCCC1"
stdout: 5000

More entries:
stdin: Which IC50 reading was recorded for the compound "O=C(NCc1ccccc1O)c1[nH]c2ccc(Br)cc2c1S(=O)(=O)N1CCCC1" ?
stdout: 9.4

stdin: Look up IC50: "O=C(NCc1nccs1)c1[nH]c2ccc(Br)cc2c1S(=O)(=O)N1CCCC1"
stdout: 200

stdin: Given "O=C(NCc1ccnc2ccccc12)c1[nH]c2ccc(Br)cc2c1S(=O)(=O)N1CCCC1" , state its recorded IC50.
stdout: 63

stdin: Can you look up the measured IC50 of "O=C(NCc1cncs1)c1[nH]c2ccc(Br)cc2c1S(=O)(=O)N1CCCC1" for me?
stdout: 6

----------
Examples of compounds with documented IC50 follow.
# Test target: Human immunodeficiency virus type 1 reverse transcriptase (Human immunodeficiency virus 1, UniProt Q72547, K103N)
# Run description: Inhibition of HIV NL43 recombinant reverse transcriptase K103N mutant by scintillation proximity assay
Unit nM implied. Number only.

stdin: // IC50 lookup, key: "O=S(=O)(c1c(-c2nc3ccc(F)cc3[nH]2)[nH]c2ccc(Br)cc12)N1CCCC1"
stdout: 220

***
stdin: Given the entry "O=S(=O)(c1c(-c2nc3cccnc3[nH]2)[nH]c2ccc(Br)cc12)N1CCCC1" , report its measured IC50.
stdout: 370

stdin: Which IC50 reading was recorded for the compound "NC(=O)c1[nH]c2ccc(Cc3ccc(Cl)cn3)cc2c1S(=O)(=O)N1CCCC1" ?
stdout: 8200

stdin: What measured IC50 goes with CCC(OC)c1cnc(-c2[nH]c3ccc(Br)cc3c2S(=O)(=O)N2CCCC2)[nH]1 (centres undefined) ?
stdout: 110

stdin: Can you look up the measured IC50 of "O=C(NCc1ccncc1)c1[nH]c2ccc(Br)cc2c1S(=O)(=O)N1CCCC1" for me?
stdout: 170

stdin: Param item = "O=C(NCc1ccn[nH]1)c1[nH]c2ccc(Br)cc2c1S(=O)(=O)N1CCCC1" ; retrieve measured IC50.
stdout: 260

stdin: Query (compound): "NC(=O)c1[nH]c2ccc(Br)cc2c1S(=O)(=O)N1CCCC1" ; field requested: IC50
stdout: 10000

stdin: For the compound shown here, "O=C(NCc1ccnc2ccccc12)c1[nH]c2ccc(Br)cc2c1S(=O)(=O)N1CCCC1" , give the reported IC50.
stdout: 25

stdin: Query: IC50; subject: "Cc1cnc(-c2[nH]c3ccc(Br)cc3c2S(=O)(=O)N2CCCC2)[nH]1"
stdout: 42

----------
# Test target: Human immunodeficiency virus type 1 reverse transcriptase (Human immunodeficiency virus 1, UniProt Q72547, Y181C)
# Run description: Inhibition of HIV HXB2 recombinant reverse transcriptase Y181C mutant by scintillation proximity assay
Entries and their measured pIC50 follow.
The read-out pIC50 is expressed as -log10 of concentration in moles per litre.

stdin: Name the reported pIC50 value associated with the compound "O=C(NCCO)c1[nH]c2ccc(Br)cc2c1S(=O)(=O)N1CCCC1"
stdout: 8.16

stdin: Please give the measured pIC50 for this compound: "Cc1cnc(-c2[nH]c3ccc(Br)cc3c2S(=O)(=O)N2CCCC2)[nH]1"
stdout: 7.60

stdin: Need pIC50, item "NC(=O)c1[nH]c2ccc(Br)cc2c1S(=O)(=O)N1CCCC1"
stdout: 6.92

stdin: // pIC50 lookup, key: "O=S(=O)(c1c(-c2nc3ccc(F)cc3[nH]2)[nH]c2ccc(Br)cc12)N1CCCC1"
stdout: 5.28

// next entry
stdin: What pIC50 value was documented for this compound, CCC(OC)c1cnc(-c2[nH]c3ccc(Br)cc3c2S(=O)(=O)N2CCCC2)[nH]1 (stereo not given) ?
stdout: 6.62

----------
Listed here are compounds together with their documented pIC50.
# Run description: Inhibition of HIV NL43 recombinant reverse transcriptase by scintillation proximity assay
# Parameters: species or system Human immunodeficiency virus
Bear in mind: pIC50 is minus log10 of a mol/L concentration; give just that figure.

Check out these entries, answers already filled in.
stdin: Give its pIC50 value. Item: "O=S(=O)(c1c(-c2nc3ccc(F)cc3[nH]2)[nH]c2ccc(Br)cc12)N1CCCC1"
stdout: 7.82

stdin: Which value of pIC50 has been reported for "COc1ccc2nc(-c3[nH]c4ccc(Br)cc4c3S(=O)(=O)N3CCCC3)[nH]c2c1" in the records?
stdout: 7.35

stdin: Value lookup for pIC50; key = "O=S(=O)(c1c(-c2nc3ccccc3[nH]2)[nH]c2ccc(Br)cc12)N1CCCC1"
stdout: 8.16

stdin: Need pIC50 of "NC(=O)c1[nH]c2ccc(Cc3ccc(Cl)cn3)cc2c1S(=O)(=O)N1CCCC1" , thanks.
stdout: 7.23

stdin: Would you mind telling me what pIC50 value was observed for "O=C(NCc1ccncc1)c1[nH]c2ccc(Br)cc2c1S(=O)(=O)N1CCCC1" ?
stdout: 7.85

New cases:
stdin: Item "O=C(NCc1ccccc1O)c1[nH]c2ccc(Br)cc2c1S(=O)(=O)N1CCCC1" has what recorded pIC50?
stdout: 8.62

stdin: Would you kindly share the measured pIC50 for "O=S(=O)(c1c(-c2ncc(-c3ccccc3)[nH]2)[nH]c2ccc(Br)cc12)N1CCCC1" ?
stdout: 7.96

stdin: What value of measured pIC50 is listed for "O=S(=O)(c1c(-c2nc3cccnc3[nH]2)[nH]c2ccc(Br)cc12)N1CCCC1" ?
stdout: 7.40

stdin: Endpoint output: pIC50 of "Cc1cnc(-c2[nH]c3ccc(Cl)cc3c2S(=O)(=O)c2ccccc2)[nH]1" . Value?
stdout: 8.30

stdin: Which pIC50 value belongs to "CCCNS(=O)(=O)c1c(C(N)=O)[nH]c2ccc(Br)cc12" ?
stdout: 7.72

stdin: Sample "NC(=O)c1[nH]c2ccc(Br)cc2c1S(=O)(=O)NC1CCC1" — what was its pIC50?
stdout: 9.30

stdin: Return reported pIC50; argument: "O=C(NCCO)c1[nH]c2ccc(Br)cc2c1S(=O)(=O)N1CCCC1"
stdout: 7.82

----------
Collected log10 of IC50 values appear next to each entry.
# Test target: Human immunodeficiency virus type 1 reverse transcriptase (Human immunodeficiency virus 1, UniProt Q72547, K103N)
# Run description: Inhibition of HIV NL43 recombinant reverse transcriptase K103N mutant by scintillation proximity assay
Heads up, the numbers here are log10 of IC50 in nM units.

Previously resolved entries follow.
stdin: Entry CCC(O)c1cnc(-c2[nH]c3ccc(Br)cc3c2S(=O)(=O)N2CCCC2)[nH]1 (stereo not given) : reported log10 of IC50 = ?
stdout: 1.79

stdin: Look up log10 of IC50 for this molecule: "O=S(=O)(c1c(-c2nc3cccc(O)c3[nH]2)[nH]c2ccc(Br)cc12)N1CCCC1"
stdout: 1.68

stdin: Return reported log10 of IC50; argument: "O=C(NCCO)c1[nH]c2ccc(Br)cc2c1S(=O)(=O)N1CCCC1"
stdout: 3.45

stdin: Which log10 of IC50 reading was recorded for the molecule "NC(=O)c1[nH]c2ccc(Cl)cc2c1S(=O)(=O)c1ccccc1" ?
stdout: 2.06

Continuing:
stdin: Recorded log10 of IC50 for "NC(=O)c1[nH]c2ccc(Cl)cc2c1S(=O)(=O)N1CCCC1" , please?
stdout: 3.29

stdin: # query: log10 of IC50 of entry "N#Cc1ccc2[nH]c(C(N)=O)c(S(=O)(=O)N3CCCC3)c2c1"
stdout: 3.36
